Items are presented alongside their recorded switch fluorescence ratio.
- Test system: ATP;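 also: ATP exposure 15 min at 22 °C before imaging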
- test.description: switch fluorescence ratio, 500 uM ATP over buffer (Cy3 cluster intensity, sum of 5 cycles each) (fold (ratio)); higher = stronger signal-on switching upon ATP binding; sequences stand for … in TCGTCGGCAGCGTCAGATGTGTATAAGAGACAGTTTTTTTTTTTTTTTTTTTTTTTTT…TC
- cond: aptamer strand: ATP DNA aptamer (quencher-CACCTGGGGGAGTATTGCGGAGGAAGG + anchor), 100 nM annealed; ATP concentration: 500 uM

sequence.chain | switch fluorescence ratio
CAGCCCAGGT | 4.12
TGTCTGAGGG | 1
GTGTCCTGTA | 0.998
ATCGTTAAGC | 1.03
TAGGGGTAGA | 1.02
GTTAGGGGCG | 0.982
GGTCCTCTTT | 0.983
ATTAGGGGGT | 0.988
GGGTTTGTTA | 1
GTATTTAAAT | 0.985
TTTGGTCAAG | 1.01
GGCAGGGACT | 1
TCTGTAAGGC | 1.39
CGGCTATGTG | 0.985
AGTCTGCTCG | 1
GTTCGAGGGC | 1.05
CAGATCCTTA | 1.05
AATTGATTGT | 0.993
ATTGTTGTTA | 0.985
AGCTCTGCGA | 1.09
CATCAGGTTT | 0.991
TAAGTTGAGT | 1.01
AACATTTTAA | 0.965
ATCAGGAAGT | 0.992
ACCTTAGTAT | 1.02
TGTGGGTTTG | 0.958
TTTCCTGGGG | 1.04
GTTCACTTTT | 1.02
GAGTTGCAGG | 1.01
CTCGCTCGGT | 1.01
GACCACGGTC | 1.02
TCGAAAGTTA | 1.04
CGAGAGGTGG | 1.04
AGATTTGCTA | 1
TGCATTTGGG | 0.989
CATAGCGTTA | 1.03
TAAGGCTCCC | 1.06
TTTCCACAGG | 1.4
CTTACAGGTT | 0.99
AGTTTGGTCC | 0.997
TTTGGCTTAT | 0.989
GGTGTCTGGT | 1
ATTTGGTTTC | 0.991
